Molecular target: NAD-dependent protein deacetylase sirtuin-2 (Homo sapiens)
Sequence (whole entry): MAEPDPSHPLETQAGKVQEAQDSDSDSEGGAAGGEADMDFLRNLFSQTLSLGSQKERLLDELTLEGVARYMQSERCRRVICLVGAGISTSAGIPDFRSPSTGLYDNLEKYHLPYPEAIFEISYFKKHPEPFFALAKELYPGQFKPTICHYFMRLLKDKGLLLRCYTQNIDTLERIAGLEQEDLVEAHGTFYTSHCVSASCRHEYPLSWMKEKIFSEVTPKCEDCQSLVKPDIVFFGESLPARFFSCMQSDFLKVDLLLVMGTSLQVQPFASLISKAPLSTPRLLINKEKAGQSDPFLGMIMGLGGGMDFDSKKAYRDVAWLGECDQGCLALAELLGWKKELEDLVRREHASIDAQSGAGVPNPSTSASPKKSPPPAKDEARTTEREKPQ
Assay: Inhibition of human SIRT2 at 5 uM
Listing of entries alongside the reported inhibition.
Just the number please, in %, no unit attached.

Check out these entries, answers already filled in.
Cc1cc(C)nc(SCC(=O)Nc2cccc(NCc3cccs3)c2)n1; 60
Cc1cc(C)nc(SCC(=O)Nc2cccc(C(=O)c3ccccc3)c2)n1; 40

Proceeding to the next compound to report its inhibition.
stdin: Entry Cc1cc(C)nc(S(=O)(=O)CC(=O)Nc2ccc(Oc3ccccc3)cc2)n1 : reported inhibition = ?
stdout: -2
